Target: Amyloid-beta precursor protein (Homo sapiens, UniProt P05067)
Sequence (P05067 whole entry): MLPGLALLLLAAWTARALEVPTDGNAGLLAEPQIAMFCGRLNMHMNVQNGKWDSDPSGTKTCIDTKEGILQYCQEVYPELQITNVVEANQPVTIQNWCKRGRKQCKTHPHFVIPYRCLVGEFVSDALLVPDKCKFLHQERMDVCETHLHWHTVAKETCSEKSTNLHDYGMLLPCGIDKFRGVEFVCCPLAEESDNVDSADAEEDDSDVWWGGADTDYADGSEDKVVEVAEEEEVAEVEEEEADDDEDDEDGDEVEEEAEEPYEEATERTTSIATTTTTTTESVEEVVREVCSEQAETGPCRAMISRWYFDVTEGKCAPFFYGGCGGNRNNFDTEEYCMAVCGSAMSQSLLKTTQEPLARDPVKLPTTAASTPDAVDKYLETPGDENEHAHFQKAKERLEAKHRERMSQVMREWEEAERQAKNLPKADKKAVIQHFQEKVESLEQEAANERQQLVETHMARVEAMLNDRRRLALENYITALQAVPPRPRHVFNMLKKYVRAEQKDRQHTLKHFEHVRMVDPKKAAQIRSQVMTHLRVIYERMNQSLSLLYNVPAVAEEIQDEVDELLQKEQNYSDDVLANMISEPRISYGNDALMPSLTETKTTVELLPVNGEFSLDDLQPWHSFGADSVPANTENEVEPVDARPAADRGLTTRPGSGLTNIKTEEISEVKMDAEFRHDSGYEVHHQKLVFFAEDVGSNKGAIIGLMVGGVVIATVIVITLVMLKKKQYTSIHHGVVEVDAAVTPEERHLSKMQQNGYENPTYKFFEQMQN
Test: Inhibition of human biotinylated amyloid beta (1 to 42) oligomerization assessed as decrease in oligomer abundance measured after 1 hr by ELISA
Details: read-out: IC50
For each entry below, report its IC50 value.
One number for each entry, in µM.

Examples with answers:
>>> result_number("CCN(CC)C(=O)/C=C/c1ccc(OCc2ccccc2)c(OC)c1")
39.3
>>> result_number("COc1cc(/C=C/C(=O)NCCC(=O)NCc2ccccc2)ccc1OCc1ccccc1")
81.6
>>> result_number("CCCN(CCC)C(=O)/C=C/c1ccc(OC)c(OC)c1")
45.3
>>> result_number("COc1cc(/C=C/C(=O)NCCC(=O)NCCOc2ccccc2)ccc1OCc1ccccc1")
17.9

Shift focus to the following entry.
Qu. Value lookup for IC50; key = COc1cc(/C=C/C(=O)N2CC(C(=O)N3CCCCC3)C2)ccc1OCc1ccccc1
Ans. 10.6

====

Target: UniProtKB P05067
Test: Inhibition of human biotinylated amyloid beta (1 to 42) oligomerization assessed as decrease in oligomer abundance measured after 1 hr by ELISA
Settings: read-out: IC50
For each entry below, report its pIC50 value.
Answers are plain numbers, as −log10 of the molar value.

Examples with answers:
>>> result_number("COc1cc(/C=C/C(=O)N2CC(C(=O)N3CCOCC3)C2)ccc1OCc1ccccc1")
4.45
>>> result_number("COc1cc(/C=C/C(=O)N(C)C)ccc1OCc1ccccc1")
4.61
>>> result_number("CCCN(CCC)C(=O)/C=C/c1ccc(O)c(OC)c1")
4.01
>>> result_number("CCN(CC)C(=O)/C=C/c1ccc(O)c(OC)c1")
3.69

Hello, I would appreciate it if you could give pIC50 for each entry below.
1. CCN(CC)C(=O)/C=C/c1ccc(O)c(O)c1
2. COc1cc(/C=C/C(=O)N2CC(C(=O)N3CC(F)(F)C3)C2)ccc1OCc1ccccc1
3. COc1ccc(CNC(=O)C2CN(C(=O)/C=C/c3ccc(OCc4ccccc4)c(OC)c3)C2)cc1
4. COc1cc(/C=C/C(=O)N2CCC[C@@H]2C(=O)NCCOc2ccccc2)ccc1OCc1ccccc1

Ans.
[3.92, 4.66, 5.32, 4.77]

Hello, I would appreciate it if you could give pIC50 for each entry below.
1. CCN(CC)C(=O)C1CN(C(=O)/C=C/c2ccc(OCc3ccccc3)c(OC)c2)C1
2. COc1cc(/C=C/C(=O)N2CCOCC2)ccc1OCc1ccccc1

Ans.
1. 4.89
2. 4.11

====

For each entry below, report its inhibition value.
Biological target: Amyloid-beta precursor protein (Homo sapiens)
Assay: Inhibition of human amyloid beta (1 to 40) fibrillization at 100 uM measured every 15 mins for 100 hrs by Thioflavin-T fluorescence assay relative to control

Examples with answers:
>>> result("COc1cc(-c2cncn2CCC(=O)NCCc2ccccc2)ccc1OCc1ccccc1")
"0%"
>>> result("COc1cc(-c2cncn2CCC(=O)NCCOc2ccccc2)ccc1OCc1ccccc1")
"13.8%"
>>> result("COc1cc(/C=C/C(=O)N2CC(C(=O)NCc3ccccc3)C2)ccc1OCc1ccccc1")
"48.2%"
>>> result("COc1cc(/C=C/C(=O)N2CC(C(=O)NCCOc3ccccc3)C2)ccc1OCc1ccccc1")
"20.6%"

Shift focus to the following entry.
Qu. # value lookup — system Amyloid-beta precursor protein (Homo sapiens), readout inhibition, item COc1cc(/C=C/c2nnn[nH]2)ccc1OCc1ccccc1
Ans. 9.56%

====

Molecular target: Amyloid-beta precursor protein (Homo sapiens)
Experiment: Inhibition of human amyloid beta (1 to 40) fibrillization at 100 uM measured every 15 mins for 100 hrs by Thioflavin-T fluorescence assay relative to control
For each entry below, report its inhibition value.
Write down the value, and be sure its unit follows.

Examples with answers:
>>> result("CCN(CC)C(=O)CCc1ccc(OCc2ccccc2)c(OC)c1")
"6.49%"
>>> result("CCN(CC)C(=O)/C=C/c1ccc(O)c(O)c1")
"91.9%"
>>> result("COc1cc(/C=C/C(=O)O)ccc1O [FERULATE]")
"36.8%"
>>> result("CCN(CC)C(=O)/C=C/c1ccc(OS(=O)(=O)c2ccc(C)cc2)c(OC)c1")
"3.62%"
>>> result("COc1cc([C@H]2C[C@@H]2C(=O)N(C)C)ccc1OCc1ccccc1")
"8.81%"

Shift focus to the following entry.
Qu. Value lookup for inhibition; key = COc1cc(/C=C/C(=O)Nc2nnn[nH]2)ccc1OCc1ccccc1
Ans. 0%

====

Target: Amyloid-beta precursor protein (Homo sapiens, UniProt P05067)
Test: Inhibition of human amyloid beta (1 to 40) fibrillization at 20 uM measured every 15 mins for 100 hrs by Thioflavin-T fluorescence assay relative to control
measurement kind: inhibition (%)
Answers are plain numbers, in %.

Hello, I would appreciate it if you could give inhibition for each entry below.
1. COc1cc(/C=C/C(O)C(F)(F)F)ccc1OCc1ccccc1 (configuration not stated)
2. COc1cc(/C=C/C(=O)N2CC(C(=O)NCc3ccccc3)C2)ccc1OCc1ccccc1
3. CCN(CC)C(=O)/C=C/c1ccc(O)c(O)c1
4. COc1cc(-c2cncn2Cc2ccccc2)ccc1OCc1ccccc1
5. COc1cc([C@H]2C[C@@H]2C(=O)N2CCCCC2)ccc1OCc1ccccc1
6. COc1cc(/C=C/CN2CCCCC2)ccc1OCc1ccccc1
7. CCCN(CCC)C(=O)/C=C/c1ccc(OCc2ccccc2)c(OC)c1

Ans.
0
14.8
73.1
2.21
0
0.29
9.35

Hello, I would appreciate it if you could give inhibition for each entry below.
1. CCN(CC)C(=O)/C=C/c1ccc(OS(=O)(=O)c2ccc(C)cc2)c(OC)c1
2. COc1cc(/C=C/C(=O)O)ccc1O [FERULATE]
3. COc1cc(/C=C/C(=O)N2CCCCC2)ccc1OCc1ccccc1
4. COc1cc(/C=C/C(=O)N2CC(C(=O)NCCOc3ccccc3)C2)ccc1OCc1ccccc1
5. COc1cc(-c2cncn2CCC(=O)NCCOc2ccccc2)ccc1OCc1ccccc1

Ans.
1: 1.95; 2: 9.75; 3: 7.28; 4: 5.5; 5: 5.98

====

Molecular target: Amyloid-beta precursor protein (Homo sapiens, UniProt P05067)
Test: Inhibition of human amyloid beta (1 to 40) fibrillization at 100 uM measured every 15 mins for 100 hrs by Thioflavin-T fluorescence assay relative to control
Where inhibition equals or exceeds 10%, the correct label is Fulfilled; where it does not, the label is Not fulfilled.

Worked examples follow.
>>> assigned_category("COc1cc(/C=C/C(=O)N(C)C)ccc1OCc1ccccc1")
"Not fulfilled"
>>> assigned_category("COc1cc(/C=C/C(=O)N2CCCCC2)ccc1OCc1ccccc1")
"Fulfilled"
>>> assigned_category("CCCN(CCC)C(=O)/C=C/c1ccc(OCc2ccccc2)c(OC)c1")
"Fulfilled"
>>> assigned_category("COc1cc(-c2cncn2Cc2ccccc2)ccc1OCc1ccccc1")
"Fulfilled"
>>> assigned_category("COc1cc(/C=C/C(O)C(F)(F)F)ccc1OCc1ccccc1 (stereo not drawn)")
"Fulfilled"
>>> assigned_category("CCN(CC)C(=O)/C=C/c1ccc(OCc2ccccc2)c(OC)c1")
"Not fulfilled"

Qu. Does the compound COc1cc(/C=C/CN2CCCCC2)ccc1OCc1ccccc1 have recorded inhibition that is 10% or more?
Ans. Fulfilled

Qu. Does the compound COc1cc([C@H]2C[C@@H]2C(=O)N2CCCCC2)ccc1OCc1ccccc1 have recorded inhibition that is 10% or more?
Ans. Fulfilled

====

For each entry below, report its pIC50 value.
Target: Amyloid-beta precursor protein (Homo sapiens, UniProt P05067)
Test: Inhibition of human biotinylated amyloid beta (1 to 42) oligomerization assessed as decrease in oligomer abundance measured after 1 hr by ELISA
Conditions: read-out: IC50
Give bare numbers, as −log10 of the molar value.

Examples with answers:
>>> result_number("COc1cc(-c2cncn2CCC(=O)NCCc2ccccc2)ccc1OCc1ccccc1")
5.00
>>> result_number("COc1cc(/C=C/C(=O)N2CC(C(=O)NCCOc3ccccc3)C2)ccc1OCc1ccccc1")
5.74
>>> result_number("CCCN(CCC)C(=O)/C=C/c1ccc(OCc2ccccc2)c(OC)c1")
4.91

Hello, I would appreciate it if you could give pIC50 for each entry below.
1. COc1cc(/C=C/C(=O)N2CCCCC2)ccc1OCc1ccccc1
2. COc1cc(/C=C/C(=O)N2CCC[C@H]2C(=O)N2CCCCC2)ccc1OCc1ccccc1
3. COc1cc(/C=C/C(=O)NCCC(=O)N2CCCCC2)ccc1OCc1ccccc1
4. COc1cc(/C=C/C(=O)N2CC(C(=O)NCc3ccc(F)cc3)C2)ccc1OCc1ccccc1

Ans.
4.55
4.77
5.09
5.44

Hello, I would appreciate it if you could give pIC50 for each entry below.
1. COc1cc(/C=C/C(=O)N2CC(C(=O)NCc3ccccc3)C2)ccc1OCc1ccccc1
2. COc1cc(-c2cncn2CCC(=O)NCCOc2ccccc2)ccc1OCc1ccccc1
3. COc1cc(/C=C/C(=O)N2CCC[C@H]2C(=O)NCCOc2ccccc2)ccc1OCc1ccccc1

Ans.
[5.50, 5.11, 5.07]

Hello, I would appreciate it if you could give pIC50 for each entry below.
1. COc1cc(/C=C/C(=O)N2CCC[C@@H]2C(=O)NCc2ccccc2)ccc1OCc1ccccc1
2. COc1cc(/C=C/C(=O)N2CCCC2)ccc1OCc1ccccc1
3. COc1cc([C@H]2C[C@@H]2C(=O)N(C)C)ccc1OCc1ccccc1
4. COc1cc(/C=C/C(=O)Nc2nnn[nH]2)ccc1OCc1ccccc1

Ans.
1. 4.75
2. 4.19
3. 4.34
4. 4.01
